# credit: patent US20250027068

- testSystem: pooled human IgG
Listed next: entries and their corresponding Enzyme Activity Endpoint Assay: Fc.
Express your answer in ng/µL, writing the number without its unit.

PRT-579 (protein) MANQEIRYSKATPSHITSVWTKGVTPPENFIYNEDVLHAPYLPNQGWYDITKTFNGKDDLLCGAATAGNMLHWWFDQNKEQIERYLKEHPEKQKINFNGEQMFDVKEAIDTKDSQTNSKLFEYFKDKAFPYLSTKHLGVFPDHVIDMFINGYRLSLTNHGPTPVKEQNKDPRGGIFDAVFTRGDQSKLLTSRHDFKEKTLNEISQLIKQELTEGKALGLSHTYANVRINHVINLWGADFNAEGNLEAIYVTDSDSNASIGMKKYYVGVNSAGKVAISAKEIEGDNIGAQVLGLFTLSTGQDIWQQTNLEHHHHHH ... 450
PRT-24 (protein) MANQEIRYSEVTPYHVTSVWTKGVTPPANFTQGEDVFHAPYVANQGWYDITKTFNGKDDLLCGAATAGNMLHWWFDQNKDQIERYLKEHPEKQKINFNGEQMFDVKEAIDTKDSQTDSKLFEYFKEKAFPYLSTKHLGVFPDHVLDMFINGYRLSLTNHGPTPVKEGSKDPRGGIFDAVFTRGDQSKLLTSRHDFKEKTLKEISDLIKKELTEGKALGLSHTYANVRINHVINLWGADFDSNGNLKAIYVTDSDSNASIGMKKYFVGVNSAGKVAISAKEIKEDNIGAQVLGLFTLSTGQDIWNQTN ... 131
PRT-42 (protein) MANQEIRYSEVTPYHVTSVWTKGVTPPANFTQGEDVFHAPYVANQGWYDITKTFNGKDDLLCGAATAGNMLHWWFDQNKDQIDRYLEEHPEKQKINFNGEQMFDVKEAIDTKNDQLDSKLFEYFKEKAFPYLSTKHLGVFPDLVIDMFINGYRLSLTNHGPTPVKEGSKDPRGGFFDAVFTRGDQSKLLTSRHDFKEKNLKEISDLIKKELTEGKALGLSHTYANVRINHVINLWGADFDSNGNLKAIYVTDSDSNASIGMKKYFVGVNSAGKVAISAKEIKEDNIGAQVLGLFTLSTGQDSWNQTN ... 54

Could you now consider this next protein?
input: Param item = PRT-277 (protein) MVTSVWTKGVTPPTDFIYGEDVLHAPYKAGQGWYDITKLFNGKDNLLCGAATAGNMLHWWFDQNKEQIENYLKKHPEKQKIIFNNQELFDLKAAIDTKDSQLDSKLFEYFLEKAFPNLSTKHLGVFPDHVIDMFINGYRLSLLNHGPTPVKRGSKDKRGGIFDAVFTRGVQSKLLTNRHDLKNKTLKEISDLIKQELTEGKALGISHTYANGRINHVINLWGADFDAEGNLEAIAVTDSDTNASIGMKKYFVGVNSSGKVAISAKEIEEDNIGAQVLGLFTLSTGQDIWNQTN ; retrieve measured Enzyme Activity Endpoint Assay: Fc.
output: 160
